- Test system: HH
- method_summary: cells;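 note: growth inhibition of HH cells, read out with a cell viability assay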
- Format: functional, cell-based, Homo sapiens
- experimental_parameters: Homo sapiens, HH
- Description: SANGER: Inhibition of human HH cell growth in a cell viability assay.
pIC50: −log10 of the molar value.

compound: O=C(NCCCNc1nc(Nc2cccc(NC(=O)N3CCCC3)c2)ncc1I)c1cccs1
pIC50: 5.33

compound: CC1(C)CCC(c2ccc(Cl)cc2)=C(CN2CCN(c3ccc(C(=O)NS(=O)(=O)c4ccc(N[C@H](CCN5CCOCC5)CSc5ccccc5)c(S(=O)(=O)C(F)(F)F)c4)cc3)CC2)C1
pIC50: < 5.70

compound: Cc1ccc(C(=O)Nc2ccc(CN3CCN(C)CC3)c(C(F)(F)F)c2)cc1C#Cc1cnc2cccnn12
pIC50: < 6.29

compound: COc1ccc(-c2cc3nccn3c(Nc3ncccc3C(N)=O)n2)cc1OC
pIC50: < 5.10

compound: COc1ccc(N(C(=O)Oc2c(C)cccc2C)c2ccnc(Nc3ccc(N4CCN(C)CC4)cc3)n2)c(OC)c1
pIC50: < 5.29

compound: CN(NC(=O)CC(=O)NN(C)C(=S)c1ccccc1)C(=S)c1ccccc1
pIC50: < 6.70

compound: Cc1cc(N2CCOCC2)cc2[nH]c(-c3c(NC[C@@H](O)c4cccc(Cl)c4)cc[nH]c3=O)nc12
pIC50: < 5.29

compound: CCCCCCCCCCCC1=C(O)C(=O)C=C(O)C1=O
pIC50: < 4.49
